Biological target: Free fatty acid receptor 1 (Rattus norvegicus, UniProt Q8K3T4)
Sequence (Q8K3T4 whole entry): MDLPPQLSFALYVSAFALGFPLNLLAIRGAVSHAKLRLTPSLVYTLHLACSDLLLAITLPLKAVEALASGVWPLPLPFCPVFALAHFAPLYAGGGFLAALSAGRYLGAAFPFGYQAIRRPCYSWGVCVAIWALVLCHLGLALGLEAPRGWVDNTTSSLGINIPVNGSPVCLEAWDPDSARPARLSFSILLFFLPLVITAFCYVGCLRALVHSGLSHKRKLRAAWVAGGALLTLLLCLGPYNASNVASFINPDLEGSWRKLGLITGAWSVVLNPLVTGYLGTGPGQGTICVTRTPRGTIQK
Assay: Agonist activity at rat GPR40 receptor expressed in CHOK1 cells assessed as induction of IP1 accumulation
Assay type: functional, cell-based, CHO-K1
readout.kind: EC50 (nM)
Reply with just the number (in nM).

Query: EC50; subject: COc1cc(-c2ncc(COc3cccc([C@@H](CC(=O)O)C4CC4)c3)nc2CC(C)C)c(F)cn1 547

====

Assay: Volume of distribution at steady state in cynomolgus monkey
Format: ADME, Macaca fascicularis
Details: in vivo, read-out: Vdss
readout.kind: Vd (L/kg)
Reply with just the number (in L/kg).

Query: Vd; subject: COc1cc(-c2ncc(COc3cccc([C@@H](CC(=O)O)C4CC4)c3)nc2CC(C)C)c(F)cn1 1.06

====

Biological target: Free fatty acid receptor 1 (Homo sapiens, UniProt O14842)
Sequence (O14842 whole entry): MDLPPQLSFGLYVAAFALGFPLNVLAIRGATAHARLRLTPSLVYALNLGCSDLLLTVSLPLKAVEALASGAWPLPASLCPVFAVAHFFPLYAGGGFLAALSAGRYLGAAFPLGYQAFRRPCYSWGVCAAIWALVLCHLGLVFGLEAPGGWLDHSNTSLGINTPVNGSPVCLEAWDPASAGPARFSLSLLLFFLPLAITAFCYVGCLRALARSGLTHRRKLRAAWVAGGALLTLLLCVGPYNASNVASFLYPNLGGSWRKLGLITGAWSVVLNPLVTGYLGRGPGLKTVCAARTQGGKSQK
Assay: Agonist activity at human GPR40 receptor expressed in CHOK1 cells assessed as induction of IP1 accumulation
Format: functional, cell-based, CHO-K1
readout.kind: pEC50
Interpret pEC50 as the negative base-10 log of the concentration measured in mol/L.

Query: pEC50; subject: COc1cc(-c2ncc(COc3cccc([C@@H](CC(=O)O)C4CC4)c3)nc2CC(C)C)c(F)cn1 6.05

====

Target: Cytochrome P450 3A4 (Homo sapiens, UniProt P08684)
Sequence (P08684 whole entry): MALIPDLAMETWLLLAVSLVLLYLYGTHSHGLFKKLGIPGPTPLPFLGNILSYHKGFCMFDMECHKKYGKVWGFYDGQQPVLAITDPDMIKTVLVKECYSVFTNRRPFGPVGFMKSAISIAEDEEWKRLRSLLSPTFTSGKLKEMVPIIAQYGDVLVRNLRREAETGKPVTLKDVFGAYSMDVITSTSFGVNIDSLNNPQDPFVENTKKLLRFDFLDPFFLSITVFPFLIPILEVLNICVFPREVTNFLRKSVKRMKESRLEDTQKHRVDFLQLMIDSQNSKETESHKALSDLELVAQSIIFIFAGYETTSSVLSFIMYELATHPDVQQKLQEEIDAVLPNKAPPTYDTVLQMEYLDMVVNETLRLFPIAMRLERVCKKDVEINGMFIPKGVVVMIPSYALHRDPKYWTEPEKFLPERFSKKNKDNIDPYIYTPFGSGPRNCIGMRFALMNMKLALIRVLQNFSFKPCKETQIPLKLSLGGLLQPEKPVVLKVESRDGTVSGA
Test: Inhibition of CYP3A4 (unknown origin) using testosterone as substrate
Format: ADME
readout.kind: IC50

Request - read-out IC50 | tested on Cytochrome P450 3A4 (Homo sapiens, UniProt P08684) | molecule COc1cc(-c2ncc(COc3cccc([C@@H](CC(=O)O)C4CC4)c3)nc2CC(C)C)c(F)cn1 > 10 µM

====

Assay: Clearance in dog
Format: ADME, Canis lupus familiaris
Settings: in vivo
readout.kind: clearance (mL/min/kg)
Reply with just the number (in mL/min/kg).

Query: clearance; subject: COc1cc(-c2ncc(COc3cccc([C@@H](CC(=O)O)C4CC4)c3)nc2CC(C)C)c(F)cn1 8.36

====

Assay: Apparent permeability across basolateral to apical side in human Caco2 cells
Format: ADME, cell-based
Conditions: Caco-2
readout.kind: Papp B→A (×10⁻⁶ cm/s)
Reply with just the number (in ×10⁻⁶ cm/s).

Query: Papp B→A; subject: COc1cc(-c2ncc(COc3cccc([C@@H](CC(=O)O)C4CC4)c3)nc2CC(C)C)c(F)cn1 40

====

Assay: Cmax in cynomolgus monkey
Assay type: ADME, Macaca fascicularis
Conditions: in vivo
readout.kind: Cmax (ng/mL)
Reply with just the number (in ng/mL).

Query: Cmax; subject: COc1cc(-c2ncc(COc3cccc([C@@H](CC(=O)O)C4CC4)c3)nc2CC(C)C)c(F)cn1 8570

====

Experiment: Half life in iv dosed rat
Assay type: ADME, organism-based
Conditions: in vivo
readout.kind: half-life (h)
Reply with just the number (in h).

Query: half-life; subject: COc1cc(-c2ncc(COc3cccc([C@@H](CC(=O)O)C4CC4)c3)nc2CC(C)C)c(F)cn1 2.71

====

Assay: Cmax in rat
Type: ADME
Conditions: in vivo
readout.kind: Cmax (ng/mL)
Reply with just the number (in ng/mL).

Query: Cmax; subject: COc1cc(-c2ncc(COc3cccc([C@@H](CC(=O)O)C4CC4)c3)nc2CC(C)C)c(F)cn1 9720

====

Assay: Apparent permeability from apical to basolateral side in dog MDCK-MDR1 cells
Type: ADME, cell-based, Canis lupus familiaris
readout.kind: Papp A→B (×10⁻⁶ cm/s)
Reply with just the number (in ×10⁻⁶ cm/s).

Query: Papp A→B; subject: COc1cc(-c2ncc(COc3cccc([C@@H](CC(=O)O)C4CC4)c3)nc2CC(C)C)c(F)cn1 50

====

Test: Volume of distribution at steady state in rat
Format: ADME
Settings: in vivo, read-out: Vdss
readout.kind: Vd
Answer with the value and then the unit.

Query: Vd; subject: COc1cc(-c2ncc(COc3cccc([C@@H](CC(=O)O)C4CC4)c3)nc2CC(C)C)c(F)cn1 0.384 L/kg

====

Experiment: Volume of distribution at steady state in dog
Format: ADME, Canis lupus familiaris
Conditions: in vivo, read-out: Vdss
readout.kind: Vd

Query: Vd; subject: COc1cc(-c2ncc(COc3cccc([C@@H](CC(=O)O)C4CC4)c3)nc2CC(C)C)c(F)cn1 1.62 L/kg
